Molecular target: Ceramide glucosyltransferase (Homo sapiens)
Sequence (Q16739 whole entry): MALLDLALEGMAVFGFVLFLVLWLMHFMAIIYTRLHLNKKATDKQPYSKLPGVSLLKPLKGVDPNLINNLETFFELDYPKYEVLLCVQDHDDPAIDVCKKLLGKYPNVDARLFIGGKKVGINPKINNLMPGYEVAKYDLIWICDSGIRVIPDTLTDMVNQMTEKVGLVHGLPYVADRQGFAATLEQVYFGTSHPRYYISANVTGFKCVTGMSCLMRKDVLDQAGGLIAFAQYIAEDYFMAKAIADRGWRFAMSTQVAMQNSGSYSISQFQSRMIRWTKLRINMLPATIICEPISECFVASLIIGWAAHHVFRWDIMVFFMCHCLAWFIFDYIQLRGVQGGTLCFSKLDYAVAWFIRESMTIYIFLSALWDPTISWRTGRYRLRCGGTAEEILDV
Test: UDP-Glo Glucosylceramide Synthase Biochemical Assay
Observable: EC50 (nM)
I only need the number, in nM, no unit after it.

1) CN1CCN(C(=O)c2cn3cc(Cl)cc(-c4ccccc4OCC(F)(F)F)c3n2)CC1(C)C 1.2

Continue with the next compound.
Quick one: give measured EC50 for COCC1(NC(=O)c2cn3cc(Cl)cc(-c4ccccc4OCC(F)(F)F)c3n2)CC1
2.4
